Data origin: patent US10300048B2

test_target: FAAH (Homo sapiens (Human))
Sequence (O00519 whole entry): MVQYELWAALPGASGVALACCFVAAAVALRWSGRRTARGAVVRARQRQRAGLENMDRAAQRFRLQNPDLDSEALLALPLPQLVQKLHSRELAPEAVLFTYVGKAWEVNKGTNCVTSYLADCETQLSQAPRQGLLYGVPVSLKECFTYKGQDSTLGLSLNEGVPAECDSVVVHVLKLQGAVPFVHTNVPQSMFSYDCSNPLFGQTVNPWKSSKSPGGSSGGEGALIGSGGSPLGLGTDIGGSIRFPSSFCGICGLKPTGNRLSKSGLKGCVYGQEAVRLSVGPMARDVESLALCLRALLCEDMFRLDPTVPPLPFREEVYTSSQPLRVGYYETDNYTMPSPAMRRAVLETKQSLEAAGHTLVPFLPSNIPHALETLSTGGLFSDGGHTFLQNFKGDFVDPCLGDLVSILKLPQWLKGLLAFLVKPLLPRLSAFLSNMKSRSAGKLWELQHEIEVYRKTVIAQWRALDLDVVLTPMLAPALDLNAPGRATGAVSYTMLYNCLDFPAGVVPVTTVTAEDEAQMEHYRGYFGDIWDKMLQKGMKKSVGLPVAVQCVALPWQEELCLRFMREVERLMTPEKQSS
method: FAAH activity: hydrolysis of [3H]-AEA in U937 cell homogenates
Format: biochemical
measurement_setup: Table 2; U937 cell homogenate; read-out: FAAH inhibition IC50
Please provide measured pIC50 for the entries that follow.
One number for each entry, as −log10 of the molar value.

O=C1/C(=C/c2cc(Cl)c(O)c(Cl)c2)S/C(=N\c2ccccc2)N1Cc1ccco1 [Compound 23] ... 4.22

Give one value of pIC50 per listed compound.
1. CCCCC/C=C\C/C=C\C/C=C\C/C=C\CCCC(=O)NCc1ccoc1 [UCM707, reference compound]
2. CCOc1cc(/C=C2\S/C(=N\c3ccc(F)cc3)N(c3ccc(F)cc3)C2=O)ccc1O [Compound 2]

## Output
[5.08, 4.25]
